- measured-on: rat CB2 receptors (Rattus norvegicus, UniProt Q9QZN9)
- Construct: expressed in transfected cells; membrane preparation
- Sequence (Q9QZN9 whole entry): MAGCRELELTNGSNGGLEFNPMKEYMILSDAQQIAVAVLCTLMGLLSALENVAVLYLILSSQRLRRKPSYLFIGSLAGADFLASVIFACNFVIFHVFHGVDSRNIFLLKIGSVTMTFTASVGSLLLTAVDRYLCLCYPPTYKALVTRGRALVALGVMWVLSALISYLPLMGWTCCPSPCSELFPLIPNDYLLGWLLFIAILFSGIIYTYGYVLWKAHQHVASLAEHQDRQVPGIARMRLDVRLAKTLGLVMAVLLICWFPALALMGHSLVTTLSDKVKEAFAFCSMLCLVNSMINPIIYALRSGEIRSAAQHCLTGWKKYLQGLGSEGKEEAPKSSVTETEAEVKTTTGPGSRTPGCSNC
- protocol: rat CB2 radioligand binding assay
- Method: (i) In Vitro Methods—CB2 and CB1 Radioligand Binding Assays: The CB1 and CB2 radioligand binding assays described herein are utilized to ascertain the selectivity of compounds of the present application for binding to CB2 relative to CB1 receptors. HEK293 cells stably expressing rat CB2 receptors were grown until a confluent monolayer was formed. […] The bound activity was counted in a TopCount using Microscint-20. […]
Measured pKi values are reported for all entries that follow.
pKi is defined as minus the log10 of a concentration measured in mol/L.

INSERT INTO assay_data (smiles_data, measured_on, metric, endpoint_value) VALUES
  ('CCCCn1/c(=N/C(=O)c2cc(C(F)(F)F)ccc2CCC(=O)OCC)cc(C(C)(C)C)n1C', 'rat CB2 receptors (Rattus norvegicus, UniProt Q9QZN9)', 'pKi', 7.49);

Can you share its pKi? I mean this compound: Cn1c(C(C)(C)C)c/c(=N\C(=O)c2cc(C(F)(F)F)ccc2CCC(C)(C)O)n1CC1CC1
6.92

Next record, please: Cn1c(C(C)(C)C)c/c(=N\C(=O)c2cc(C(F)(F)F)ccc2CN2CC(O)C2)n1CC1CC1
7.61

Also, Cn1c(C(C)(C)C)c/c(=N\C(=O)c2cc(C(F)(F)F)ccc2CN2CC(C)(O)C2)n1CC1CC1 please.
6.97

Please answer likewise for CCCCn1nc(C(C)(C)C)s/c1=N\C(=O)c1cc(C(F)(F)F)ccc1CN1CC(C(C)(C)O)C1
8.67
